experiment: Toxicity liver stage against HepG2, at 10uM; format: cell-based; parameters: test concentration 10 uM, cell line HepG2-A16-CD81EGFP; conditions: human, HepG2-A16-CD81EGFP cells; read-out: INHIBITION
Form field: cytotoxicity at 10 µM (one value per entry).
The answer is to be given in %; state only the numeric part.

Worked examples follow.
[[record]]
compound = "CN1CCN(CCO)C(=O)C12CCN(Cc1ccsc1)CC2"
measurementunits = "%"
measured = 3.66

[[record]]
compound = "CN(C)C(=O)CN1CCCC2(CCN(c3ccsc3)C2=O)C1 (centres undefined)"
measurementunits = "%"
measured = 9.88

[[record]]
compound = "N[C@@H]1c2ccccc2C2(CCN(c3cnc4ccccc4n3)CC2)[C@H]1O"
measurementunits = "%"
measured = -2.45


We next turn to a different compound, shown below.
The value of cytotoxicity at 10 µM measured for the compound CCCc1n[nH]c(=O)n1Cc1ccccc1F turned out to be 2.24
